Below is a list of entries, each paired with its recorded pIC50 value.
Molecular target: SARS-CoV-2 P.1 spike protein (SARS-CoV-2 P.1 (Gamma), UniProt P0DTC2 13-1213)
Test: ELISA
The read-out pIC50 is expressed as -log10 of concentration in moles per litre.

1-L10-A (antibody, V domains shown) VH: EVKLEESGGGLVQPGGSMKLSCVASGFTFNNYWMNWVRQSPEKGLEWVAQMRLKSDNYATHYAESVKGRFTISRDDSKSSVYLQMNNLRAEDTGIYYCIEGYWTYWGQGTLVTVSA VL: QIVLTQSPAIMSASLGERVTMTCTASSSVSSSYLHWYQQKPGSSPKLWIYSTSNLASGVPARFSGNGSGTSYSLTISSMEAEDAATYYCLQYHRSPPYTFGGGTKLEIK ... 7.94
2-H7-A (antibody, V domains shown) VH: QAYLQQSGAELVRPGASVKMSCKASGYTFTGYTMHWVKQTPRQGLEWIGAIYPENGDTSYNQKFKGKATLTVDKSSSTAYMQLSSLTSEDSAVYFCARDGYDVLYGMDYWGQGTSVTVSS VL: DIVLTQSPASLAVSLGQRATISCRASKSVSTSGYSYMHWYQQKPGQPPKLLIYLASNLESGVPARFSGSGSGTDFTLNIHPVEEEDAATYYCQHSRELPWTFGGGTKLDIK ... 7.45
4-N22-A (antibody, V domains shown) VH: QVQLQQPGTELVKPGASVKLSCKASGYTFTNYWMYWVKQRPGQGLDWIGNINPSNGGTNYNEKFKSKATLTVDKSSSTAYMQLSSLTSEDSAVYYCARETGNYWGQGTTLTVSS VL: DILMTQSPSSMSVSLGDTVSISCHASQGISSNIGWLQQKPGKSFKGLIYHGTNLEDGVPSRFSGSGSGADYSLTISSLESEDFADYYCVQYAQFPYTFGGGTKLEIK ... 7.76

# lookup: pIC50 of 8-H5-A (antibody, V domains shown) VH: QVTLKESGPGILQSSQTLSLTCSLSGFSLSTSGMGVSWVRQPSGKGLEWLAHIYWDDDKRYTPSLKSRLTISTDSSRKQVFLKITSVDTADTATYYCARRDLHDYDGWFAYWGQGTLVTVSA VL: DIVMTQSQKFMSTAVGDRVSVTCKASQNVGTNVAWYQQKPGQSPKALIYSASFRYSGVPDRFSGSGSGTDFTLTISNVQSEDLAEYFCQQYNSYPLTFGSGTKLEIK 7.52
